System: A498 renal
Assay: NCI-60 one-dose screen, 48 h (100 = growth as untreated, 0 = no growth, -100 = all killed)
Details: 10 µM unless noted
The panel holds about 83,000 compounds, 20% with a hit somewhere; the sample as a whole holds those more often.
So basically: growth at 90% or higher? That is 1 (yes). Lower than 90%? That is 0 (no).

Compound	Class assignment
CSc1nc(-c2cc3ccccc3o2)cc(-c2ccc(Cl)cc2)c1C#N	0 (no)
O=C(CCCn1c2c(sc3ccccc32)c(=O)n2nnc(-c3ccccc3)c12)NCCc1cnc[nH]1	0 (no)
COc1ccc(C2NC3=C(CCCC3)C(C#N)(C#N)C2(C#N)C#N)cc1 (stereo unspecified)	1 (yes)
CCSc1nnc(NC(=O)Cc2ccc(Cl)cc2)s1	1 (yes)

---

# key: entry, value: growth
Test system: PC-3 prostate
Test: NCI-60 one-dose screen, 48 h (100 = growth as untreated, 0 = no growth, -100 = all killed)
Details: 10 µM unless noted
Compounds without any hit were thinned out: in the full panel of roughly 83,000, 20% have a hit.
Readout name: growth (%)

Compound	Target or system	Readout name	Test result
CCn1cc(C(=O)O)c(=O)c2cc(F)c(N3CCN(S(=O)(=O)c4ccc(OC)c(OC)c4)CC3)cc21	PC-3 prostate	growth	90
COc1cc(-c2cc(/C=C3\CCCCC3=O)[nH]n2)cc(OC)c1OC	PC-3 prostate	growth	89.2
Cc1nn(-c2ccc(Cl)cc2)c(=O)n1CCOc1ccccc1Cl	PC-3 prostate	growth	88.5
O=C1Nc2ccc(Br)cc2C1=N/C=c1\[nH]c(=O)/c(=C/c2ccc(Cl)cc2)s1	PC-3 prostate	growth	92
CC(Cc1nnc(SCC(=O)Nc2ccc(I)cc2)n1N)c1ccccc1 (stereo not given)	PC-3 prostate	growth	90.2

---

Test system: COLO 205 colon
Test: NCI-60 one-dose screen, 48 h (100 = growth as untreated, 0 = no growth, -100 = all killed)
Conditions: 10 µM unless noted
The panel holds about 83,000 compounds, 20% with a hit somewhere; the sample as a whole holds those more often.

Molecule	Target or system	Units label	growth
O=C(O)c1ccc(-n2c(=O)c3ccccc3c3ccccc3c2=O)cc1	COLO 205 colon	%	105
CCOC(=O)CC(C#N)(CC(=O)OCC)C(=O)OCC	COLO 205 colon	%	116
O=C1Nc2cc(Cl)ccc2/C1=C/c1ccc(N2CCOCC2)s1	COLO 205 colon	%	95.1
O=C1C2=C(C(=O)c3c(O)ccc(O)c31)N(c1cccnc1)Cc1ccccc1O2	COLO 205 colon	%	-60.9
O=C(NCCc1c[nH]c2ccccc12)C1Cc2ccccc2CN1C(=O)c1ccco1 (configuration not stated)	COLO 205 colon	%	134
COc1cc2nc(Cl)nc(NCCO)c2cc1OC	COLO 205 colon	%	125
COc1ccc(/C=C/C(=O)c2ccc(NC(=O)CN3CCN(c4cc5c(cc4F)c(=O)c(C(=O)O)cn5C4CC4)CC3)cc2)cc1	COLO 205 colon	%	120
O=S=Nc1ccc([N+](=O)[O-])cc1	COLO 205 colon	%	106
NC(=O)c1c(NC(=O)c2ccc(OCC3CCCO3)cc2)sc2c1CCCC2 (configuration not stated)	COLO 205 colon	%	111
O=Nc1c(-c2c(O)[nH]c3ccc([N+](=O)[O-])cc23)[nH]c2ccc(O)cc12	COLO 205 colon	%	65.8
O=C(CNC1CCCCC1)Nc1ccc(-c2nc3ccccc3s2)cc1	COLO 205 colon	%	95.4
COc1ccc(/C(=N/O)c2cc(OC)c(OC)c(OC)c2)c(OC)c1N	COLO 205 colon	%	20.2
COc1ccc(-c2cn[nH]c2-c2cc(OC)c3c(c2)OCCO3)cc1	COLO 205 colon	%	-59.5
CC(C)CCC[C@@H](C)[C@H]1CC[C@H]2[C@@H]3CC[C@H]4C/C(=N/O)CC[C@]4(C)[C@H]3CC[C@]12C	COLO 205 colon	%	108
O=C(OCCCCOC(=O)n1cnc2ccccc21)n1cnc2ccccc21	COLO 205 colon	%	103
C=CCc1cc(Cl)cc2c(OC(C)=O)c(C(C)=O)c(-c3ccccc3)nc12	COLO 205 colon	%	108
c1ccc(CCn2nnc3c(Nc4ccc(N5CCOCC5)cc4)ncnc32)cc1	COLO 205 colon	%	90.1
O=C(c1c[nH]c2ccccc12)C(Sc1nc2ccccc2c(=O)[nH]1)c1ccccc1 (configuration not stated)	COLO 205 colon	%	96.9
Nc1c(C(=O)Nc2ccccc2)sc2nc3c(cc12)CCCCC3	COLO 205 colon	%	9.29
COc1ccc(NC(=O)CSc2nc3ccc(Cl)cc3c(=O)n2-c2ccccc2C(F)(F)F)c(OC)c1OC	COLO 205 colon	%	92.9
COc1ccc(OC)c(-c2ccc(-c3ccccc3N)c3[nH]c4ccccc4c23)c1	COLO 205 colon	%	87.5
COc1cc(NC(=O)CSc2nc3ccc(C)cc3c(=O)n2-c2ccccc2)cc(OC)c1OC	COLO 205 colon	%	111
Clc1ccc(/C=C/c2nc(N3CCOCC3)c3nc(Cl)c(Cl)cc3n2)cc1	COLO 205 colon	%	102
Nc1c(C(=O)Nc2ccccc2)sc2nc3c(cc12)CCC3	COLO 205 colon	%	108
COC1=CC(c2ccc[nH]2)=N/C1=C\c1[nH]c(C)c(C(=O)CCCCC(=O)NCc2ccccc2)c1C	COLO 205 colon	%	55.2
C=C1C(=O)O[C@H]2[C@H]1CC/C(COC(=O)NCc1cc(OC)c(OC)c(OC)c1)=C\CC[C@@]1(C)O[C@@H]21	COLO 205 colon	%	17.6
COc1ccc(S(=O)(=O)NCCNc2nccc(-c3c(-c4ccccc4)nc4sccn34)n2)cc1	COLO 205 colon	%	1.41

---

Test system: KM12 colon
Test: NCI-60 one-dose screen, 48 h
Settings: 10 µM unless noted
Compounds without any hit were thinned out: in the full panel of roughly 83,000, 20% have a hit. Calls of active or inactive are those of the source. Rule for the calls: active = growth percent below 10; inactive = the rest.
Outcomes: 1 (yes) (active), 0 (no) (inactive)

Compound	Class assignment
COc1cccc2nc(Nc3ccc(NC(=O)c4ccc5ncccc5c4)cc3)ccc12	0 (no)
COc1ccc(/C=C/c2cc(N3CCOCC3)c3cc(F)c(F)cc3n2)cc1OC	0 (no)
Cc1ccc(C(=O)c2sc3nc4c(cc3c2N)CCCC4)c(C)c1	0 (no)
Cc1cccc(NC(=O)c2sc3nc4c(cc3c2N)CCC4)c1C	0 (no)
CCCC1OC(c2ccc(C(C)C)cc2)OCC1CC (stereo not drawn)	0 (no)
COc1ccc(/C=C/C(=O)c2cc(OC)c(OC)c(OC)c2)cc1OCc1cn(Cc2ccc(F)cc2)nn1	1 (yes)
Cc1c(C(=O)NCc2ccccc2)[n+](=O)c2cc(F)ccc2n1[O-]	0 (no)
Cc1ccc2nc(-c3c(N)n[nH]c3CCCO)[nH]c(=O)c2c1	0 (no)
O=C1CCCCN1CCCCC#Cc1ccccc1C#Cc1ccc([N+](=O)[O-])cc1	0 (no)
NCCSC(c1ccccc1)(c1ccccc1)c1ccccc1	0 (no)
CC(C)N(Cc1ccc(CN(C(=O)CCl)C(C)C)cc1)C(=O)CCl	0 (no)
C=CCOc1cccc(/C=C/C(=O)c2sc(Nc3cccnc3)nc2C)c1	0 (no)
CN=S(=O)(NC(=O)c1ccc(Cl)cc1Cl)c1ccc(Br)s1 (stereo not drawn)	0 (no)
O=C(Nc1ccc(Br)c(Cl)c1)c1cc(F)ccc1O	1 (yes)
COc1ccc(NC(=O)CSc2nc3ccc(Cl)cc3c(=O)n2-c2ccccc2C(F)(F)F)c(OC)c1OC	0 (no)
O=C1c2ccccc2C(=O)c2c1oc1oc3c(c(=O)c21)c(=O)n(-c1ccccc1)c1ccccc31	0 (no)
COc1cccc(/C=C/C(=O)c2sc(Nc3ccc(O)cc3)nc2C)c1	0 (no)
Cc1nc(Nc2cccnc2)sc1C(=O)/C=C/c1ccc(F)cc1	0 (no)
CN(C)c1ccc(/C=C\N=Nc2ccc(Br)cc2)cc1	0 (no)
COc1cc(/C=C2\CCCC3=C2N=C2SC(C)=NN2C3c2cc(OC)c(OC)c(OC)c2)cc(OC)c1OC (stereo not drawn)	1 (yes)
O=C(CNc1ccc(Cl)cc1)Nc1ccc(-c2nc3ccccc3s2)cc1	0 (no)
Cn1c(-c2nonc2NC(=O)c2ccc(F)cc2)nc2ccccc21	0 (no)
CS(=O)(=O)N(c1cc(-c2ccc3ncnc(Nc4cccc(Cl)c4)c3c2)cnc1Cl)S(C)(=O)=O	0 (no)
Clc1nc(-c2cccnc2)nc2sc3c(c12)CCCCCC3	0 (no)
O=[N+]([O-])c1c(S(=O)(=O)O)cc2cc(S(=O)(=O)O)ccc2c1[N+](=O)[O-]	0 (no)
Cc1cc(C)c(NC(=O)c2sc3nc4c(cc3c2N)CN(Cc2ccccc2)CC4)c(C)c1	0 (no)
CCn1c(=O)c2c(=O)c3c4c(oc3oc2c2ccccc21)C(=O)c1ccccc1C4=O	0 (no)
COc1ccc(C(=O)c2cc(OC)c(OC)c(OC)c2)cc1/C=C/C(=O)c1ccc2c(c1)OCO2	1 (yes)
Nc1c(C(=O)Nc2cccc([N+](=O)[O-])c2)sc2nc3c(cc12)C(O)CCC3 (stereo not drawn)	0 (no)
CC(=O)n1cc([C@H]2CC[C@H](c3cn(C(C)=O)c4ccccc34)c3c2[nH]c2ccccc32)c2ccccc21	0 (no)
O=C(CCCn1c(=O)c2sc3ccccc3c2n2nnc(-c3ccccc3)c12)NCCc1cnc[nH]1	1 (yes)
O=S(=O)(NCCNc1nccc(-c2c(-c3ccccc3)nc3sccn23)n1)c1ccc(O)cc1	0 (no)
NS(=O)(=O)c1ccc(CN2C(=O)c3cccc4cccc(c34)C2=O)cc1	0 (no)
